// provenance: patent US8318730B2

Test system: IL-12 production
Assay: In vitro assay of Example 12: inhibition of IL-12 production in IFNγ/LPS- or IFNγ/SAC-stimulated cells, ELISA
Assay type: cell-based, human
Conditions: Homo sapiens; assay of Example 12; if more than one assay was performed, only the most active IC50 result is reported
measured endpoint: log10 of IC50 (log10 of the value in nM)
Log10 applied to IC50; unit prior to transform: nM.

Past entries and their recorded results:
{"compound": "COc1ccc(CCOc2nc(N3CCOCC3)c3cc(-c4cccc(C)c4)ccc3n2)cc1OC [Compound 15]", "log10 of IC50": 2.28}
{"compound": "COc1ccc(CCOc2nc(N3CCOCC3)c3cc(Oc4ccccc4Cl)ccc3n2)cc1OC [Compound 34]", "log10 of IC50": 2.54}
{"compound": "Cc1ccc(-c2ccc3nc(OCCN4CCOCC4)nc(N4CCOCC4)c3c2)cc1 [Compound 37]", "log10 of IC50": 3.40}
{"compound": "COc1ccc(CCOc2nc(N3CCOCC3)c3cc(-c4ccccc4)ccc3n2)cc1OC [Compound 19]", "log10 of IC50": 3.84}
{"compound": "COc1ccc(CCOc2nc(N3CCOCC3)c3cc(-c4cc(C)cc(C)c4)ccc3n2)cc1OC [Compound 27]", "log10 of IC50": 2.67}
{"compound": "Cc1cccc(-c2ccc3nc(OCCc4ccccn4)nc(N4CCOCC4)c3c2)c1 [Compound 16]", "log10 of IC50": 1.93}

Task item: Look up log10 of IC50: Cc1cccc(-c2ccc3nc(OCCO)nc(N4CCOCC4)c3c2)c1 [Compound 18]
Reply: 2.21

Task item: Look up log10 of IC50: COCCOc1nc(N2CCOCC2)c2cc(-c3cccc(C)c3)ccc2n1 [Compound 13]
Reply: 3.26

Task item: Look up log10 of IC50: COc1ccc(CCOc2nc(N3CCOCC3)c3cc(-c4ccc(C(F)(F)F)cc4)ccc3n2)cc1OC [Compound 32]
Reply: 3.48

Task item: Look up log10 of IC50: c1ccc(Nc2ccc3nc(OCCN4CCOCC4)nc(N4CCOCC4)c3c2)cc1 [Compound 14]
Reply: 3.48

Task item: Look up log10 of IC50: COc1ccc(CCOc2nc(N3CCOCC3)c3cc(-c4cccc(C(F)(F)F)c4)ccc3n2)cc1OC [Compound 20]
Reply: 2.03

Task item: Look up log10 of IC50: COc1ccc(CCOc2nc(N3CCOCC3)c3cc(-c4ccc(C)s4)ccc3n2)cc1OC [Compound 22]
Reply: 3.48

Task item: Look up log10 of IC50: COc1ccc(CCOc2nc(N3CCOCC3)c3cc(-c4ccc(C)cc4)ccc3n2)cc1OC [Compound 21]
Reply: 1.77

Task item: Look up log10 of IC50: c1ccc2oc(-c3cnc4nc(OCCN5CCOCC5)nc(N5CCOCC5)c4c3)cc2c1 [Compound 45]
Reply: 2.89

Task item: Look up log10 of IC50: COc1ccc(CCOc2nc(N3CCOCC3)c3cc(-c4cc5ccccc5o4)ccc3n2)cc1OC [Compound 28]
Reply: 1.81

Task item: Look up log10 of IC50: COc1cccc(-c2ccc3nc(OCCc4ccc(OC)c(OC)c4)nc(N4CCOCC4)c3c2)c1 [Compound 25]
Reply: 2.60

Task item: Look up log10 of IC50: FC(F)(F)c1cccc(-c2cnc3nc(OCCN4CCOCC4)nc(N4CCOCC4)c3c2)c1 [Compound 43]
Reply: 3.15

Task item: Look up log10 of IC50: COc1ccc(-c2ccc3nc(OCCc4ccc(OC)c(OC)c4)nc(N4CCOCC4)c3c2)cc1 [Compound 31]
Reply: 2.62
